Source: ChEMBL document CHEMBL4715688

assay: Clearance in male Sprague-Dawley rat at […], iv; type: ADME, organism-based; conditions: in vivo, dose 0.71 mg/kg
measured.metric: clearance (mL/min/kg)
Note: unit mL/min/kg is implicit; provide only the numeric part.

Enquiry: Can you look up the measured clearance of "C[C@H](Nc1ncnc(N)c1C#N)c1nc2ccc(F)cc2n1-c1cccnc1" for me?
Return: 15.5

====

test: Clearance in male Sprague-Dawley rat at 0.5 mg/kg, iv; format: ADME, organism-based; settings: in vivo
Label key: TRUE means clearance under 30 mL/min/kg; FALSE means clearance of 30 mL/min/kg or more.

Answered examples (2):
Enquiry: Please state whether clearance is below 30 mL/min/kg for "C[C@H](Nc1ncnc(N)c1C#N)c1nc2ccc(F)cc2n1-c1cncc(F)c1"
Return: TRUE

Enquiry: API: query returns whether the compound falls strictly under 30 mL/min/kg in clearance. Query: "C[C@H](Nc1ncnc(N)c1C#N)c1nc2ccc(F)cc2n1-c1cc(F)cc(F)c1"
Return: FALSE

Next:
Enquiry: Dear reviewer, please state whether "C[C@H](Nc1ncnc(N)c1C#N)c1nc2ccc(F)cc2n1-c1ccccn1" has clearance strictly beneath 30 mL/min/kg.
Return: TRUE

Enquiry: clearance strictly < 30 mL/min/kg for this compound? "C[C@H](Nc1ncnc(N)c1C#N)c1nc2ccc(F)cc2n1-c1ccccc1"
Return: FALSE
